System: S. typhimurium/E. coli reverse mutation, colony counts
Assay: Bacterial reverse mutation test (aka Ames test) summary data;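 further: His-minus Salmonella and trp-minus E. coli WP2 uvrA pKM101 with or without liver S9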
Inconclusive results are not listed. The source made the active and inactive calls. How the calls were made is not given here.
Respond with a class label; see active, inactive

Solved entries (count: 3):
| Compound | Qualitative label |
| --- | --- |
| C=CC | active |
| Cc1ncc[nH]1 | inactive |
| CC(O)CBr (stereo not drawn) | active |

Entry `CCCCO` : call = ?
inactive

Entry `Oc1cccc(O)c1O` : call = ?
active

Entry `N[C@@H](CCC(=O)O)C(=O)O` : call = ?
inactive

----------
Tested on: S. typhimurium/E. coli reverse mutation, colony counts
Experiment: Bacterial reverse mutation test (aka Ames test) summary data;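 further: His-minus Salmonella and trp-minus E. coli WP2 uvrA pKM101 with or without liver S9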
Text: The Ames test uses bacteria cultures to determine whether a substance causes mutations. Because there is a significant overlap between substances that are mutagens and those that are carcinogens, a quick and inexpensive mutagenicity test is useful as an initial screening for possible carcinogens. The Ames test relies on specific strains of S. typhimurium, namely: TA97, TA98, TA100, TA102, TA104, TA1535, TA1537, and TA1538. […]
Inconclusive results are not listed. The source made the active and inactive calls. How the calls were made is not given here.
Respond with a class label; see TRUE (active), FALSE (inactive)

Solved entries (count: 5):
| Compound | Qualitative label |
| --- | --- |
| CC(=O)Nc1ccc(C(=O)O)cc1 | FALSE |
| CCOP(=S)(OCC)Oc1ccc([N+](=O)[O-])cc1 | TRUE |
| O=C(O)c1ccccc1 | FALSE |
| [O-][N+](=Nc1ccc(Cl)c(Cl)c1)c1ccc(Cl)c(Cl)c1 | FALSE |
| NC(=O)Nc1nc2ccccc2[nH]1 | TRUE |

Read the next record carefully.
Entry `[Cl-].[Cl-].[Hg+2]` : call = ?
FALSE

----------
Tested on: S. typhimurium/E. coli reverse mutation, colony counts
Experiment: Bacterial reverse mutation test (aka Ames test) summary data;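 further: His-minus Salmonella and trp-minus E. coli WP2 uvrA pKM101 with or without liver S9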
Records with an inconclusive call do not appear. The source made the active and inactive calls. How the calls were made is not given here.
Respond with a class label; see active, inactive

Solved entries (count: 3):
| Smiles code | Qualitative label |
| --- | --- |
| CCCCOC(=O)c1ccccc1C(=O)OC1CCCCC1 | inactive |
| Cc1ccc([N+](=O)[O-])cc1C | active |
| c1ccc2c(c1)Nc1ccccc1S2 | inactive |

Read the next record carefully.
Entry `Cc1ccc(C)c(N)c1` : call = ?
active

----------
System: S. typhimurium/E. coli reverse mutation, colony counts
Experiment: Bacterial reverse mutation test (aka Ames test) summary data;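 further: His-minus Salmonella and trp-minus E. coli WP2 uvrA pKM101 with or without liver S9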
Inconclusive results are not listed. Calls of active or inactive are those of the source. No rule for the calls is given here.
Respond with a class label; see 1 (yes) for active, 0 (no) for inactive

| Compound | Subject of test | Qualitative label |
| --- | --- | --- |
| Nc1cc(Cl)cc(C(=O)O)c1Cl | S. typhimurium/E. coli reverse mutation, colony counts | 1 (yes) |
| CCOP(=O)(OCC)OCC | S. typhimurium/E. coli reverse mutation, colony counts | 0 (no) |
| Clc1ccc(C(c2ccc(Cl)cc2)c2ccc(Cl)cc2)cc1 | S. typhimurium/E. coli reverse mutation, colony counts | 0 (no) |
| CCC[CH2][Sn]([CH2]CCC)([CH2]CCC)[O][Sn]([CH2]CCC)([CH2]CCC)[CH2]CCC | S. typhimurium/E. coli reverse mutation, colony counts | 0 (no) |
| CCN | S. typhimurium/E. coli reverse mutation, colony counts | 0 (no) |
| C=C(C)[C@H]1CC=C(C)CC1 | S. typhimurium/E. coli reverse mutation, colony counts | 0 (no) |

Entry `Cc1cscn1` : call = ?
0 (no)

Entry `O=c1[nH]cc(F)c(=O)[nH]1` : call = ?
0 (no)

Entry `Cc1c(C(=O)O)cccc1[N+](=O)[O-]` : call = ?
1 (yes)

Entry `Clc1cc(Cl)c(Cl)c(Cl)c1` : call = ?
0 (no)

Entry `CC(C)(C)CC(C)(C)c1ccc(OCCOCC[N+](C)(C)Cc2ccccc2)cc1` : call = ?
0 (no)

Entry `Nc1nc(=S)c2[nH]cnc2[nH]1` : call = ?
1 (yes)

Entry `CCCN(CCC)C(=O)SCC` : call = ?
0 (no)

Entry CC(COc1ccccc1)N(CCCl)Cc1ccccc1 (stereo not drawn) : call = ?
1 (yes)

Entry `CCC[CH2][Sn]([CH2]CCC)([O]C(C)=O)[O]C(C)=O` : call = ?
0 (no)

Entry `C=CCOC(=O)c1ccccc1N` : call = ?
0 (no)

Entry `O=[N+]([O-])c1cccc2c([N+](=O)[O-])cccc12` : call = ?
1 (yes)

Entry `Cc1cccc(O)c1` : call = ?
0 (no)

Sourced from PubChem BioAssay AID2202554
